assay_target: acetylcholine receptor (Homo sapiens, UniProt P02708)
Sequence (P02708 21-457): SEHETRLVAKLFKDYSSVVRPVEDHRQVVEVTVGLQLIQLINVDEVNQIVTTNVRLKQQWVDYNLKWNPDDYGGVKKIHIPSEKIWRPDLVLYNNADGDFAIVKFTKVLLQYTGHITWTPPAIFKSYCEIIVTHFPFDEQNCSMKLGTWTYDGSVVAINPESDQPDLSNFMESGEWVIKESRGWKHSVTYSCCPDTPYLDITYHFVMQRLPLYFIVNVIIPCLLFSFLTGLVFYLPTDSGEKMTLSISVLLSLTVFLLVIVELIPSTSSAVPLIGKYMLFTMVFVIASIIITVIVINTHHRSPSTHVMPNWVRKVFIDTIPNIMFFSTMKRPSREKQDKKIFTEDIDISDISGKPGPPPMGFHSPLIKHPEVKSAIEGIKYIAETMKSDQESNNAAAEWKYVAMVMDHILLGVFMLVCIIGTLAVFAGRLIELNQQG
test_name: SPR binding affinity (RU) of optimized 5mer/6mer/7mer peptides, Examples 6-7
test_context: SPR, Resonance Units; peptides tested at 10 μM; 6mer-2 Bottom sequence
quantity_name: Binding affinity (Ru)
Give the number; Ru is assumed, so skip it.

substance="6mer-2-819 (KFSVRR)" measured_value=23
substance="6mer-2-985 (REMNKR)" measured_value=34
substance="6mer-2-845 (KMKEKR)" measured_value=14
substance="6mer-2-916 (KTTEKR)" measured_value=22
substance="6mer-2-767 (RICGRK)" measured_value=13
substance="6mer-2-865 (RHCNRK)" measured_value=16

stdin: Indicate its recorded Binding affinity; the substance in question is 6mer-2-862 (RHTFKK)
stdout: 29

stdin: Indicate its recorded Binding affinity; the substance in question is 6mer-2-672 (KIDDRK)
stdout: 20

stdin: Indicate its recorded Binding affinity; the substance in question is 6mer-2-662 (KAHPKK)
stdout: 11

stdin: Indicate its recorded Binding affinity; the substance in question is 6mer-2-757 (RIPNKR)
stdout: 19

stdin: Indicate its recorded Binding affinity; the substance in question is 6mer-2-801 (RPNIRK)
stdout: 24

stdin: Indicate its recorded Binding affinity; the substance in question is 6mer-2-802 (KETKRR)
stdout: 24

stdin: Indicate its recorded Binding affinity; the substance in question is 6mer-2-904 (KCCFKK)
stdout: 30

stdin: Indicate its recorded Binding affinity; the substance in question is 6mer-2-939 (KKCARR)
stdout: 22

stdin: Indicate its recorded Binding affinity; the substance in question is 6mer-2-822 (RCTAKK)
stdout: 13

stdin: Indicate its recorded Binding affinity; the substance in question is 6mer-2-623 (KHAHRR)
stdout: 13
